Data origin: PubChem BioAssay AID1918952

# Tested on: LG0703-F948-PDC complex spheroid viability
# procedure.text: Anticancer human tumor LG0703-F948-PDC patient-derived lung adenocarcinoma cell line growth inhibition
# measurement.conditions: second compound 0.1 µM; first compound 0.00949 µM; hits give low values
Please respond with reported viability, T/C for every item in the list.
Give bare numbers, in %.

- compound: "CCc1c2c(nc3ccc(O)cc13)-c1cc3c(c(=O)n1C2)COC(=O)[C@]3(O)CC + NC1CCC(NC2CC2c2ccccc2)CC1"
  observation.type: "viability, T/C"
  value.observed: 23.9
- compound: "O=C(C=Cc1cccc(S(=O)(=O)Nc2ccccc2)c1)NO + NC1CC1c1ccc(-c2cccc(O)c2)cc1"
  observation.type: "viability, T/C"
  value.observed: 113

Each compound below has a reported value. Please supply its viability, T/C.
1. NS(=O)(=O)OCC1CC(n2ccc3c(NC4CCc5ccccc54)ncnc32)CC1O (configuration not stated) + NC1CC1c1ccc(-c2cccc(O)c2)cc1
2. COc1cc(C2c3cc4c(cc3C(OC3OC5COC(C)OC5C(O)C3O)C3COC(=O)C23)OCO4)cc(OC)c1O (configuration not stated) + NC1CC1c1ccc(-c2cccc(O)c2)cc1
3. Nc1ccn(C2OC(CO)C(O)C2(F)F)c(=O)n1 (configuration not stated) + NC1CC1c1ccc(-c2cccc(O)c2)cc1

Response line:
[101, 117, 51.9]

Each compound below has a reported value. Please supply its viability, T/C.
1. Nc1ncn(C2CC(O)C(CO)S2)c(=O)n1 (configuration not stated) + NC1CC1c1ccc(-c2cccc(O)c2)cc1
2. CCc1c2c(nc3ccc(O)cc13)-c1cc3c(c(=O)n1C2)COC(=O)[C@]3(O)CC + NC1CC1c1ccc(-c2cccc(O)c2)cc1

Response line:
104
21.3

====

# System: LG0703-F948-PDC complex spheroid viability
# procedure.text: Anticancer human tumor LG0703-F948-PDC cell line growth inhibition; active = viability on the fitted dose curve at most 10% of control; inactive = the rest;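 also: spheroids exposed to agents for seven days before readout; 100% = DMSO vehicle control wells as normalization base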
# measurement.conditions: second compound 1 µM; first compound 10 µM
Would you mind answering with one of these outcomes? active, inactive

Worked set:
- compound: "CC1(C)CCC(CN2CCN(c3ccc(C(=O)NS(=O)(=O)c4ccc(NCC5CCOCC5)c([N+](=O)[O-])c4)c(Oc4cnc5[nH]ccc5c4)c3)CC2)=C(c2ccc(Cl)cc2)C1 + NC1CCC(NC2CC2c2ccccc2)CC1"
  test.system: "LG0703-F948-PDC complex spheroid viability"
  qualitative.label: "active"
- compound: "CC(C)c1c(-c2ccccc2)nc2c(C#N)c[nH]n2c1=O + NC1CC1c1ccc(-c2cccc(O)c2)cc1"
  test.system: "LG0703-F948-PDC complex spheroid viability"
  qualitative.label: "inactive"
- compound: "CC1(C)CCC(CN2CCN(c3ccc(C(=O)NS(=O)(=O)c4ccc(NCC5CCOCC5)c([N+](=O)[O-])c4)c(Oc4cnc5[nH]ccc5c4)c3)CC2)=C(c2ccc(Cl)cc2)C1 + NC1CC1c1ccc(-c2cccc(O)c2)cc1"
  test.system: "LG0703-F948-PDC complex spheroid viability"
  qualitative.label: "active"

Prompt line: Hello, I am checking results. What call was entered for COc1ccc([C@@H](O)c2cc(-c3ncnc4cc(N5CCOCC5)ccc34)c(F)cc2Cl)nn1 + NC1CC1c1ccc(-c2cccc(O)c2)cc1 ?
Response line: active

Prompt line: And for COc1ccc([C@@H](O)c2cc(-c3ncnc4cc(N5CCOCC5)ccc34)c(F)cc2Cl)nn1 + NC1CCC(NC2CC2c2ccccc2)CC1 ?
Response line: active

Prompt line: And for CC1COCCN1c1cc(C2(S(C)(=N)=O)CC2)nc(-c2ccnc3[nH]ccc23)n1 (stereo not given) + NC1CC1c1ccc(-c2cccc(O)c2)cc1 ?
Response line: inactive

Prompt line: And for O=C(c1cc(Cc2n[nH]c(=O)c3ccccc23)ccc1F)N1CCN(C(=O)C2CC2)CC1 + NC1CCC(NC2CC2c2ccccc2)CC1 ?
Response line: inactive

====

# Tested on: LG0703-F948-PDC complex spheroid viability
# procedure.text: Anticancer human tumor LG0703-F948-PDC cell line growth inhibition;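 also: spheroids exposed to agents for seven days before readout; 100% = DMSO vehicle control wells as normalization base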
# measurement.conditions: second compound 0.1 µM; first compound 0.00316 µM; hits give low values
observation.type: viability, T/C (%)
Answers are plain numbers, in %.

- molecule: "COc1cc(Nc2ncc3c(n2)-c2ccc(Cl)cc2C(c2c(F)cccc2OC)=NC3)ccc1C(=O)O + NC1CCC(NC2CC2c2ccccc2)CC1"
  observation.type: "viability, T/C"
  value.observed: 87.8
- molecule: "COc1cc(Nc2ncc3c(n2)-c2ccc(Cl)cc2C(c2c(F)cccc2OC)=NC3)ccc1C(=O)O + NC1CC1c1ccc(-c2cccc(O)c2)cc1"
  observation.type: "viability, T/C"
  value.observed: 91.5
- molecule: "CC(C)CC(NC(=O)CNC(=O)c1cc(Cl)ccc1Cl)B1OC(=O)CC(CC(=O)O)(C(=O)O)O1 (stereo unspecified) + NC1CC1c1ccc(-c2cccc(O)c2)cc1"
  observation.type: "viability, T/C"
  value.observed: 57.3
- molecule: "CC(C)CC(NC(=O)CNC(=O)c1cc(Cl)ccc1Cl)B1OC(=O)CC(CC(=O)O)(C(=O)O)O1 (stereo unspecified) + NC1CCC(NC2CC2c2ccccc2)CC1"
  observation.type: "viability, T/C"
  value.observed: 66.7
- molecule: "O=C(C=Cn1cnc(-c2cc(C(F)(F)F)cc(C(F)(F)F)c2)n1)NNc1cnccn1 + NC1CC1c1ccc(-c2cccc(O)c2)cc1"
  observation.type: "viability, T/C"
  value.observed: 62.2

Each molecule below has a reported value. Please supply its viability, T/C.
1. CC1COCCN1c1cc(-c2ccnn2C)c2ccnc(-c3ccn[nH]3)c2n1 (stereo unspecified) + NC1CCC(NC2CC2c2ccccc2)CC1
2. CC[C@@]1(O)C(=O)OCc2c1cc1n(c2=O)Cc2cc3c(CN(C)C)c(O)ccc3nc2-1 + NC1CC1c1ccc(-c2cccc(O)c2)cc1
3. CC[C@@]1(O)C(=O)OCc2c1cc1n(c2=O)Cc2cc3c(CN(C)C)c(O)ccc3nc2-1 + NC1CCC(NC2CC2c2ccccc2)CC1

Response line:
[76.3, 106, 110]

Each molecule below has a reported value. Please supply its viability, T/C.
1. Cn1ncnc1C1c2n[nH]c(=O)c3cc(F)cc(c23)NC1c1ccc(F)cc1 (stereo unspecified) + NC1CCC(NC2CC2c2ccccc2)CC1
2. Cn1ncnc1C1c2n[nH]c(=O)c3cc(F)cc(c23)NC1c1ccc(F)cc1 (stereo unspecified) + NC1CC1c1ccc(-c2cccc(O)c2)cc1
3. Nc1ncn(C2CC(O)C(CO)O2)c(=O)n1 (stereo unspecified) + NC1CCC(NC2CC2c2ccccc2)CC1
4. O=C(C=Cn1cnc(-c2cc(C(F)(F)F)cc(C(F)(F)F)c2)n1)NNc1cnccn1 + NC1CCC(NC2CC2c2ccccc2)CC1

Response line:
[93.1, 94.9, 101, 45.3]

====

Please respond with reported viability, T/C for every item in the list.
# Tested on: LG0703-F948-PDC complex spheroid viability
# procedure.text: Anticancer human tumor LG0703-F948-PDC cell line growth inhibition;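 also: spheroids exposed to agents for seven days before readout; 100% = DMSO vehicle control wells as normalization base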
# measurement.conditions: second compound 0.316 µM; first compound 0.316 µM; hits give low values
Numbers only, in %.

Consider the following illustrative entries.
- compound: "O=C(C=Cn1cnc(-c2cc(C(F)(F)F)cc(C(F)(F)F)c2)n1)NNc1cnccn1 + NC1CC1c1ccc(-c2cccc(O)c2)cc1"
  viability, T/C, %: 26
- compound: "CC1(C)CCC(CN2CCN(c3ccc(C(=O)NS(=O)(=O)c4ccc(NCC5CCOCC5)c([N+](=O)[O-])c4)c(Oc4cnc5[nH]ccc5c4)c3)CC2)=C(c2ccc(Cl)cc2)C1 + NC1CCC(NC2CC2c2ccccc2)CC1"
  viability, T/C, %: 102
- compound: "Nc1ncn(C2CC(O)C(CO)O2)c(=O)n1 (stereo not drawn) + NC1CC1c1ccc(-c2cccc(O)c2)cc1"
  viability, T/C, %: 95.7

Each compound below has a reported value. Please supply its viability, T/C.
1. CC(C)c1c(-c2ccccc2)nc2c(C#N)c[nH]n2c1=O + NC1CCC(NC2CC2c2ccccc2)CC1
2. COc1cc(Nc2ncc3c(n2)-c2ccc(Cl)cc2C(c2c(F)cccc2OC)=NC3)ccc1C(=O)O + NC1CCC(NC2CC2c2ccccc2)CC1
3. COc1ccc([C@@H](O)c2cc(-c3ncnc4cc(N5CCOCC5)ccc34)c(F)cc2Cl)nn1 + NC1CC1c1ccc(-c2cccc(O)c2)cc1
4. CC1COCCN1c1cc(C2(S(C)(=N)=O)CC2)nc(-c2ccnc3[nH]ccc23)n1 (stereo not drawn) + NC1CC1c1ccc(-c2cccc(O)c2)cc1
5. CC1COCCN1c1cc(-c2ccnn2C)c2ccnc(-c3ccn[nH]3)c2n1 (stereo not drawn) + NC1CCC(NC2CC2c2ccccc2)CC1
6. CC1COCCN1c1cc(C2(S(C)(=N)=O)CC2)nc(-c2ccnc3[nH]ccc23)n1 (stereo not drawn) + NC1CCC(NC2CC2c2ccccc2)CC1

Response line:
[97.4, 36.6, 98.7, 118, 26.2, 94.8]

Each compound below has a reported value. Please supply its viability, T/C.
1. CC1COCCN1c1cc(-c2ccnn2C)c2ccnc(-c3ccn[nH]3)c2n1 (stereo not drawn) + NC1CC1c1ccc(-c2cccc(O)c2)cc1
2. COc1ccc([C@@H](O)c2cc(-c3ncnc4cc(N5CCOCC5)ccc34)c(F)cc2Cl)nn1 + NC1CCC(NC2CC2c2ccccc2)CC1
3. CC1(C)CCC(CN2CCN(c3ccc(C(=O)NS(=O)(=O)c4ccc(NCC5CCOCC5)c([N+](=O)[O-])c4)c(Oc4cnc5[nH]ccc5c4)c3)CC2)=C(c2ccc(Cl)cc2)C1 + NC1CC1c1ccc(-c2cccc(O)c2)cc1
4. COc1cc(Nc2ncc3c(n2)-c2ccc(Cl)cc2C(c2c(F)cccc2OC)=NC3)ccc1C(=O)O + NC1CC1c1ccc(-c2cccc(O)c2)cc1

Response line:
18.7
87.3
100
33.5
